- target_desc: mouse VISTA (mVISTA) (Mus musculus, UniProt Q9D659)
- Construct: expressed in transfected cells; host or cells: Human embryonic kidney 293T cells
- Sequence (Q9D659 33-308): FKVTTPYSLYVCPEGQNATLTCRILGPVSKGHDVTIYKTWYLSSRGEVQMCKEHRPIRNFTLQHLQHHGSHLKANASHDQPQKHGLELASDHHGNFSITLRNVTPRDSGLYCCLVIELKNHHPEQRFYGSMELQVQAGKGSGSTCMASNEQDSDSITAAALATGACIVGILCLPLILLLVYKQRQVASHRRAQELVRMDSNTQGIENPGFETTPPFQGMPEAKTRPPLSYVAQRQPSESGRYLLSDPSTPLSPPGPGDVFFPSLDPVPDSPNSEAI
- method: Cell-Based Binding High-Content Assay For mVISTA (HC CBA mVISTA)
- condition_context: read-out: HC CBA mVISTA IC50
Positions of bridges follow the written chain, without caps; N, C: chain ends. Non-standard residues stand in square brackets, D forms with d. Residues, ends and D or L forms follow the SMILES beside them. ξ: configuration not given here. Phe(3-Me) = Cc1cccc(C[C@H](N)C(=O)O)c1; NMeY = CN[C@@H](Cc1ccc(O)cc1)C(=O)O; Ahp(2) = CCCCC[C@H](N)C(=O)O; NMeNle = CCCC[C@H](NC)C(=O)O; Pip = O=C(O)[C@@H]1CCCCN1; NHexGly = CCCCCCNCC(=O)O; Nle = CCCC[C@H](N)C(=O)O; Orn = NCCC[C@H](N)C(=O)O; Nva = CCC[C@H](N)C(=O)O; ξS = NC(CO)C(=O)O
Give pIC50 for every item shown.
pIC50 here: minus log base 10 of the concentration, concentration in moles per litre.

QUERY: Reported pIC50 for CCCCCCN1CC(=O)N[C@@H](Cc2ccc(O)cc2)C(=O)N[C@@H](CCCC)C(=O)N[C@@H](CC(=O)O)C(=O)N[C@@H](CCCN)C(=O)N(C)[C@@H](CCCC)C(=O)N[C@@H](CCCCC)C(=O)N2CCC[C@H]2C(=O)N[C@@H](C(C)C)C(=O)N[C@@H](CC(=O)O)C(=O)N[C@H](C(=O)NC(CO)C(N)=O)CSCC(=O)N[C@@H](Cc2ccccc2)C(=O)N[C@@H](Cc2cccc(C)c2)C(=O)N[C@@H](CC(=O)O)C1=O (stereo partly shown) [compound 1348] ({CH2CO}-F[Phe(3-Me)]D[NHexGly]Y[Nle]D[Orn][NMeNle][Ahp(2)]PVDC[ξS]-NH2; thioether N-14) : what is it?
RESULT: 7.63

QUERY: Reported pIC50 for CCCCCCN1CC(=O)N[C@@H](Cc2ccc(O)cc2)C(=O)N[C@@H](CCC)C(=O)N[C@@H](CC(N)=O)C(=O)N[C@@H](CCCNC(=N)N)C(=O)N[C@@H](CC(C)C)C(=O)N[C@@H](CCCCC)C(=O)N2CCC[C@H]2C(=O)N[C@@H](C(C)C)C(=O)N2CCC[C@H]2C(=O)N[C@H](C(=O)NCC(=O)O)CSCC(=O)N[C@@H](Cc2ccccc2)C(=O)N[C@@H](Cc2ccc(O)cc2)C(=O)N[C@@H](CC(=O)O)C1=O [compound 1120] ({CH2CO}-FYD[NHexGly]Y[Nva]NRL[Ahp(2)]PVPCG-OH; thioether N-14) : what is it?
RESULT: 8.59

QUERY: Reported pIC50 for CCCCCCN1CC(=O)N[C@@H](Cc2ccc(O)cc2)C(=O)N[C@@H](CCCCC)C(=O)NCC(=O)N[C@@H](CCCNC(=N)N)C(=O)N[C@@H](CC(C)C)C(=O)N[C@@H](CCCCC)C(=O)N2CCCC[C@H]2C(=O)N[C@@H](C(C)C)C(=O)N[C@@H](CO)C(=O)N[C@H](C(=O)NCC(N)=O)CSCC(=O)N[C@@H](Cc2ccccc2)C(=O)N[C@@H](Cc2ccc(O)cc2)C(=O)N[C@@H](CC(=O)O)C1=O [compound 1155] ({CH2CO}-FYD[NHexGly]Y[Ahp(2)]GRL[Ahp(2)][Pip]VSCG-NH2; thioether N-14) : what is it?
RESULT: 7.62

QUERY: Reported pIC50 for CCCCCCN1CC(=O)N[C@@H](Cc2ccc(O)cc2)C(=O)N[C@@H](CCCC)C(=O)N[C@@H](CC(N)=O)C(=O)N[C@@H](CCCNC(=N)N)C(=O)N(C)[C@@H](Cc2ccc(O)cc2)C(=O)N[C@@H](CCCCC)C(=O)N2CCC[C@H]2C(=O)N[C@@H](C(C)C)C(=O)N[C@@H](CC(=O)O)C(=O)N[C@H](C(=O)NCC(=O)O)CSCC(=O)N[C@@H](Cc2ccccc2)C(=O)N[C@@H](Cc2c[nH]c3ccccc23)C(=O)N[C@@H](CC(=O)O)C1=O [Example 1411] ({CH2CO}-FWD[NHexGly]Y[Nle]NR[NMeY][Ahp(2)]PVDCG-OH; thioether N-14) : what is it?
RESULT: 7.73
